Tested on: HeLa MZ
Test: LBPA endosome anti-LBPA integrated intensity (sum per cell), Z-score; higher = more LBPA staining
Details: compound concentration in added solution (µM; 5 µl added to 20 µl cells): 10; 18 h
Structures can show the parent of a compound that is named as a salt.
Property Measured: LBPA endosome anti-LBPA integrated intensity (z-score)
Answer with a bare number; do not write a unit.

INSERT INTO assay_data (compound, result_number) VALUES
  ('CC[C@H](C)C(=O)O[C@H]1C[C@H](O)C=C2C=C[C@H](C)[C@H](CC[C@@H](O)C[C@@H](O)CC(=O)O)[C@H]21 [Pravastatin]', 0.0503);

The compound identified as O=C(NCCN1CCOCC1)c1ccc(Cl)cc1 [Moclobemide] registered its LBPA endosome anti-LBPA integrated intensity (z-score) at -0.12

The compound identified as C[C@@H]1CN(c2c(F)c(N)c3c(=O)c(C(=O)O)cn(C4CC4)c3c2F)C[C@H](C)N1 [Sparfloxacin] registered its LBPA endosome anti-LBPA integrated intensity (z-score) at 0.876

The compound identified as CN1CC2c3ccccc3Oc3ccc(Cl)cc3C2C1 (stereo not drawn) [Asenapine maleate] registered its LBPA endosome anti-LBPA integrated intensity (z-score) at 2

The compound identified as CCN(CC)CCc1nc(-c2ccccc2)no1 [Oxalamine citrate salt] registered its LBPA endosome anti-LBPA integrated intensity (z-score) at 0.162

The compound identified as C=CCc1ccccc1OCC(O)CNC(C)C (stereo not drawn) [Alprenolol hydrochloride] registered its LBPA endosome anti-LBPA integrated intensity (z-score) at -0.138

The compound identified as C=CCN1CCCC1CNC(=O)c1cc2nn[nH]c2cc1OC (stereo not drawn) [Alizapride HCl] registered its LBPA endosome anti-LBPA integrated intensity (z-score) at 0.636

The compound identified as Nc1ccc(S(N)(=O)=O)cc1 [Sulfanilamide] registered its LBPA endosome anti-LBPA integrated intensity (z-score) at -0.84

The compound identified as C[C@]12CCC(=O)C=C1CC[C@@H]1[C@@H]2[C@@H](O)C[C@@]2(C)[C@H]1CC[C@]2(O)C(=O)CO [Hydrocortisone base] registered its LBPA endosome anti-LBPA integrated intensity (z-score) at -0.249

The compound identified as CC(Oc1ccccc1)C(=O)N[C@@H]1C(=O)N2[C@@H]1SC(C)(C)[C@@H]2C(=O)O (stereo partly drawn) [Phenethicillin potassium salt] registered its LBPA endosome anti-LBPA integrated intensity (z-score) at -1.24

The compound identified as CCOc1ccc2c(c1)C(C)=CC(C)(C)N2 [Ethoxyquin] registered its LBPA endosome anti-LBPA integrated intensity (z-score) at 0.201

The compound identified as O=C(NCCO[N+](=O)[O-])c1cccnc1 [Nicorandil] registered its LBPA endosome anti-LBPA integrated intensity (z-score) at -0.536

The compound identified as CC(NCCc1ccc(O)cc1)C(O)c1ccc(O)cc1 (stereo not drawn) [Ritodrine hydrochloride] registered its LBPA endosome anti-LBPA integrated intensity (z-score) at 0.237

----------
Parameter: filipin (z-score). Scope: all listed entries.
System: A431
Test: filipin (cholesterol) integrated intensity within LBPA endosomes, Z-score; higher = more cholesterol in LBPA endosomes
Details: compound concentration in added solution (µM; 5 µl added to 20 µl cells): 10; 18 h
Structures can show the parent of a compound that is named as a salt.

Known results for molecules:
INSERT INTO measurements (molecule, tested_target, result) VALUES
  ('CC(C)NCC(O)COc1cccc2[nH]ccc12 (stereo not given) [Pindolol]', 'A431', -0.329),
  ('CC(C)(C)NCC(O)COc1cccc2c1CC(O)C(O)C2 (stereo not given) [Nadolol]', 'A431', -0.44),
  ('Cc1ccsc1/C=C/C1=NCCCN1C [Morantel tartrate]', 'A431', -0.593),
  ('NC(=O)N1c2ccccc2CC(=O)c2ccccc21 [Oxcarbazepine]', 'A431', -0.582);

Consider now this further molecule.
The molecule identified as CC(C)/N=c1\cc2n(-c3ccc(Cl)cc3)c3ccccc3nc-2cc1Nc1ccc(Cl)cc1 [Clofazimine] registered its filipin (z-score) at 0.416

----------
System: HeLa MZ
Test: whole-cell filipin (free cholesterol) integrated intensity, Z-score; higher = more cholesterol staining
Settings: compound concentration in added solution (µM; 5 µl added to 20 µl cells): 10; 18 h
Counter-ions that a name gives are not always drawn.
Parameter: whole-cell filipin (z-score). Scope: all listed entries.
Answer with a bare number; do not write a unit.

Known results for compounds:
INSERT INTO results (compound, result_number) VALUES
  ('CCn1cc(C(=O)O)c(=O)c2cc(F)c(N3CCNCC3)cc21 [Norfloxacin]', -1.18),
  ('CC(N)C12CC3CC(CC(C3)C1)C2 (stereo not given) [Rimantadine Hydrochloride]', 0.106),
  ('CCCC(CCC)C(=O)O [Valproic acid]', 2.69),
  ('CCC1(c2ccccc2)NC(=O)N(C)C1=O (stereo not given) [Mephenytoin]', -0.325);

Consider now this further compound.
Form field, whole-cell filipin (z-score) with HeLa MZ, item CC(O)(P(=O)(O)O)P(=O)(O)O [Etidronic acid, disodium salt] : -0.368

----------
Test system: A431
Experiment: LBPA endosome anti-LBPA integrated intensity (sum per cell), Z-score; higher = more LBPA staining
Details: compound concentration in added solution (µM; 5 µl added to 20 µl cells): 10; 18 h
Counter-ions that a name gives are not always drawn.
The following ranges of LBPA endosome anti-LBPA integrated intensity (z-score) define the classes used here: band 1 (below -0.5), band 2 (-0.5 to below -0.4), band 3 (-0.4 or more)

Previously resolved entries follow.
INSERT INTO measurements (compound, group_label) VALUES
  ('CC[C@H]1OC(=O)[C@H](C)[C@@H](O[C@H]2C[C@@](C)(OC)[C@@H](O)[C@H](C)O2)[C@H](C)[C@@H](O[C@@H]2O[C@H](C)C[C@H](N(C)C)[C@H]2O)[C@](C)(O)C[C@@H](C)[C@@H]2N[C@@H](COCCOC)O[C@H]([C@H]2C)[C@]1(C)O', 'band 2'),
  ('COc1ccccc1N1CCN(CCCCNC(=O)c2ccc3ccccc3c2)CC1', 'band 3'),
  ('CC(=O)S[C@@H]1CC2=CC(=O)CC[C@]2(C)[C@H]2CC[C@@]3(C)[C@@H](CC[C@@]34CCC(=O)O4)[C@H]12', 'band 1'),
  ('C[C@@H]1[C@H](O)[C@@H](C)/C=C/C=C/C=C/C=C/C=C/C=C/C=C/[C@H](O[C@@H]2O[C@H](C)[C@@H](O)[C@H](N)[C@@H]2O)C[C@@H]2O[C@](O)(C[C@@H](O)C[C@@H](O)[C@H](O)CC[C@@H](O)C[C@@H](O)CC(=O)O[C@H]1C)C[C@H](O)[C@H]2C(=O)O', 'band 3'),
  ('CC(C(=O)O)c1ccc2c(c1)Cc1cccnc1O2 (centres undefined)', 'band 1'),
  ('CCCOc1ccc(C(=O)OCCN(CC)CC)cc1N [Proparacaine hydrochloride]', 'band 2');

Just checking, what class would you give CC1COc2c(N3CCN(C)CC3)c(F)cc3c(=O)c(C(=O)O)cn1c23 (centres undefined) here?
band 1

Just checking, what class would you give Cn1c(=O)c2c(ncn2CC2OCCO2)n(C)c1=O here?
band 3

Just checking, what class would you give CC(CN(C)C)C(C)(O)Cc1ccc(Cl)cc1 (centres undefined) [Clobutinol hydrochloride] here?
band 1

Just checking, what class would you give NC(=O)N1c2ccccc2C=Cc2ccccc21 [Carbamazepine] here?
band 2

Just checking, what class would you give COC(=O)C1=C(C)NC(C)=C(C(=O)OCC(C)C)C1c1ccccc1[N+](=O)[O-] (centres undefined) here?
band 3

Just checking, what class would you give CO/N=C(\C(=O)N[C@@H]1C(=O)N2C(C(=O)O)=C(C[N+]3(C)CCCC3)CS[C@H]12)c1csc(N)n1 [Cefepime hydrochloride] here?
band 2

----------
Tested on: A431
Experiment: filipin (cholesterol) integrated intensity within LBPA endosomes, Z-score; higher = more cholesterol in LBPA endosomes
Conditions: compound concentration in added solution (µM; 5 µl added to 20 µl cells): 10; 18 h
Structures can show the parent of a compound that is named as a salt.
Hi, to clarify the labels: satisfied covers filipin (z-score) from -0.5 upward, not satisfied covers anything below -0.5.

Previously resolved entries follow.
INSERT INTO measurements (compound, tested_target, group_label) VALUES
  ('COc1ccc(OC)c(C(O)CNC(=O)CN)c1 (stereo not drawn) [Midodrine hydrochloride]', 'A431', 'not satisfied'),
  ('CC(=O)N(O)CCCCCNC(=O)CCC(=O)N(O)CCCCCNC(=O)CCC(=O)N(O)CCCCCN [Deferoxamine mesylate]', 'A431', 'satisfied'),
  ('C[C@]12CC[C@@H]3c4ccc(O)cc4CC[C@H]3[C@@H]1C[C@@H](O)[C@@H]2O', 'A431', 'satisfied'),
  ('OCC(O)CN1CCN(c2ccccc2)CC1 (racemic) [Dropropizine (R,S)]', 'A431', 'not satisfied'),
  ('COc1ccc(C(=O)NCc2cccnc2)cc1C(=O)NCc1cccnc1 [Picotamide monohydrate]', 'A431', 'satisfied');

Form field: filipin (z-score) at least -0.5? Entry: CC(CCc1ccc(O)cc1)NCCc1ccc(O)c(O)c1 (stereo not drawn) [Dobutamine hydrochloride]
satisfied

The values you see were collected from the supplement of paper PMC6607015.
